- Test summary: ATG_TAL_CIS: Attagene CIS-FACTORIAL HepG2 Assay for human TAL Basal Promoter (AID 2282966);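 further: background control endpoint measuring basal TAL promoter reporter mRNA not a specific factor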
- Condition info: HepG2 Attagene cis-factorial TAL promoter reporter; actives raise or lower the signal
The source made the active and inactive calls. How the source made its calls: active means hit-call score of the fitted dose curve at least 0.9, where 1 is the maximum; inactive means score below 0.9.
Outcome codes: active, inactive

Molecule | Class
CCCCCCCCCCCCOCCO | inactive
COc1ccc(O)cc1 | inactive
CCC(C(=O)NC(N)=O)c1ccccc1 (configuration not stated) | inactive
CC(C)Oc1ccccc1O | inactive
O=C(O)Cc1cccc2ccccc12 | inactive
O=[N+]([O-])c1cc(C(F)(F)F)ccc1Cl | inactive
CN1Cc2c(N)cccc2C(c2ccccc2)C1 (configuration not stated) | inactive
CC(=O)Nc1ccc(CC(=O)O)cc1 | inactive
O=S(=O)(O)NC1CCCCC1 | inactive
NC(=O)NC1NC(=O)NC1=O (configuration not stated) | inactive
Clc1sc(Cl)c(Cl)c1Cl | inactive
CCCCC(CC)COC(=O)/C=C\C(=O)OCC(CC)CCCC (configuration not stated) | inactive
CCCCCCCCCCCCN(CCCCCCCCCCCC)CCCCCCCCCCCC | inactive
CCCCO | inactive
C=C(C)C1CCC(C)CC1O (configuration not stated) | inactive
CC1COc2ccccc2N1C(=O)C(Cl)Cl (configuration not stated) | inactive
Cc1ccc(Nc2ccc(O)c3c2C(=O)c2ccccc2C3=O)cc1 | inactive
C=CC(C)(C)O | inactive
S=C(S)NCCNC(=S)S | inactive
CC(C)=CCO | inactive
O=c1[nH]c(=O)n([C@H]2CCCO2)cc1F | inactive
C=C(C)[C@@H]1CC[C@@H](C)C[C@@H]1O | inactive
O=Cc1ccc(F)cc1 | inactive
Cc1ccc(S)cc1 | inactive
COc1ccc(OC)c(OC)c1 | inactive
COc1nc(C)nc(N)n1 | inactive
OCCN1CCNCC1 | inactive
CC1=CCC2C(C1)C2(C)C (configuration not stated) | inactive
O=C(OCc1ccccc1)C(=O)OCc1ccccc1 | inactive
O=c1oc(=O)c2cc3c(=O)oc(=O)c3cc12 | inactive
CC(C)(CO)[N+](=O)[O-] | inactive
C=CC(=O)OCC(O)COc1ccccc1 (configuration not stated) | inactive
O=C(O)c1cccc([N+](=O)[O-])c1 | inactive
CC(=O)Nc1ccccc1O | inactive
CCCCN | inactive
C=C(C)C(=O)O[C@H]1C[C@@H]2CC[C@@]1(C)C2(C)C | inactive
CCOC(=S)SSC(=S)OCC | inactive
CC(=O)c1c(C)cc(C(C)(C)C)cc1C | inactive
O=C(O)c1cn(C2CC2)c2cc(N3CCNCC3)c(F)cc2c1=O | inactive
CC(=O)C=CC1=C(C)CCCC1(C)C | inactive
N#Cc1nc(Cl)c(Cl)c(Cl)c1Cl | inactive
CC(=O)O[C@H](CC(=O)[O-])C[N+](C)(C)C | inactive
NC(N)=NC(=O)c1nc(Cl)c(N)nc1N | inactive
CC1=CC(=O)NS(=O)(=O)O1 | inactive
CC1CC(OC(=O)c2ccccc2O)CC(C)(C)C1 (configuration not stated) | active
CCCc1ccccc1O | inactive
CCN(CC)c1ccc2c(-c3ccccc3C(=O)O)c3ccc(=[N+](CC)CC)cc-3oc2c1 | inactive
Cc1ccc(C(=O)c2cc(O)c(O)c([N+](=O)[O-])c2)cc1 | inactive
c1cc(C(c2ccc(OCC3CO3)cc2)c2ccc(OCC3CO3)cc2)ccc1OCC1CO1 (configuration not stated) | active
O=C(Nc1ccccc1)c1cc([N+](=O)[O-])ccc1Cl | inactive
COCCOCCOCCOCCOCCO | inactive
COC(=O)c1ccc(C)cc1 | inactive
OCCOCCOCCOCCO | inactive
C=C(C)[C@@H]1CCC2=CC(=O)C[C@@H](C)[C@]2(C)C1 | inactive
CN(CCOc1ccc(CC2SC(=O)NC2=O)cc1)c1ccccn1 (configuration not stated) | inactive
Cc1cccc(C)c1[N+](=O)[O-] | inactive
O=[N+]([O-])c1ccc(C=Cc2ccc([N+](=O)[O-])cc2S(=O)(=O)O)c(S(=O)(=O)O)c1 | inactive

====

- Test summary: CEETOX_H295R_CORTIC: CeeTox H295R High-throughput Steroidogenesis Assay for Corticosterone (CORTIC) (AID 2283437);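 further: corticosterone secreted into medium quantified by mass spectrometry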
- Condition info: actives raise or lower the signal
Calls of active or inactive are those of the source. How the source made its calls: active means hit-call score of the fitted dose curve at least 0.9, where 1 is the maximum; inactive means score below 0.9.
Outcome codes: active, inactive

Compound structure string | Class
NC(=O)Nc1ccc(Cl)cc1 | active
O=c1cc(-c2ccccc2)oc2cc(O)cc(O)c12 | active
O=C(O)c1ccc([N+](=O)[O-])cc1 | inactive
C#C[C@]1(O)CC[C@H]2[C@@H]3CCC4=Cc5oncc5C[C@]4(C)[C@H]3CC[C@@]21C | active
Cc1cccc(C)c1C | inactive
Nc1ccc(F)c([N+](=O)[O-])c1 | inactive
Cc1ccc2n[nH]nc2c1 | inactive
C=CCOc1nc(OCC=C)nc(OCC=C)n1 | active
O=C(O)C[C@H](O)C[C@H](O)/C=C/c1c(C2CC2)nc2ccccc2c1-c1ccc(F)cc1 | active

====

- Test summary: BSK_BT_Bcell_Proliferation: Viability Assessment in the BioMAP Diversity Plus: BT Assay for B cell Proliferation (AID 2284227)
- Condition info: primary human B cells with PBMC
Activity calls are given as the source filed them. How the source made its calls: active means hit-call score of the fitted dose curve at least 0.9, where 1 is the maximum; inactive means score below 0.9.
Classes used: 1.0 = active, 0.0 = inactive

Molecule | Class
O=C1CCCCCCCCCCCCCCO1 | 1.0
CCCCCCCCCCCCCCCCCC(=O)OCC(CC)CCCC (stereo not given) | 0.0
O=P(c1ccccc1)(c1ccccc1)c1ccccc1 | 0.0
CC(=O)/C=C/C1=C(C)CCCC1(C)C | 0.0
CCCCCCCCCC=O | 0.0
CCCCCCCCC=O | 0.0
Cc1ccc(O)c(C(C)(C)C)c1 | 0.0
CCn1c2ccccc2c2cc(N)ccc21 | 1.0
O=C(O)c1cn(C2CC2)c2cc(N3CCNCC3)c(F)cc2c1=O | 0.0
O=C1OC2(c3cc(Br)c(O)c(Br)c3Oc3c2cc(Br)c(O)c3Br)c2c(Cl)c(Cl)c(Cl)c(Cl)c21 | 0.0
C=C(C)C(=O)O[C@H]1C[C@@H]2CC[C@@]1(C)C2(C)C | 0.0
Nc1cc([N+](=O)[O-])ccc1Cl | 0.0
c1ccc2sc(SN(C3CCCCC3)C3CCCCC3)nc2c1 | 0.0
O=[N+]([O-])c1cc(C(F)(F)F)ccc1Cl | 0.0
Cc1ccc2n[nH]nc2c1 | 0.0

====

- Test summary: BSK_3C_VCAM1: BioMAP Diversity Plus: 3C Assay for Vascular cell adhesion molecule 1 (VCAM1) Biomarker Activity (AID 2282999)
- Condition info: BioMAP 3C HUVEC, VCAM1 ELISA, cytokine-stimulated; actives raise or lower the signal
- Protocol: BSK_3C is a cell-based, multiplexed-readout assay that uses umbilical vein endothelium, a human vascular primary cell, with measurements taken at 24 hours after chemical dosing in a 96-well plate.BSK_3C_VCAM1 is an assay component measured in the BSK_3C assay. It measures VCAM-1 antibody related to regulation of gene expression using ELISA technology.Data from the assay component BSK_3C_VCAM1 was analyzed into 1 assay endpoint. […]
Active and inactive are the calls of the source. How the source made its calls: active means hit-call score of the fitted dose curve at least 0.9, where 1 is the maximum; inactive means score below 0.9.
Outcomes: active, inactive

Molecule | Class
CCn1c2ccccc2c2cc(N)ccc21 | inactive
CCCCCCCCCC=O | inactive
C=CCOC(=O)CCC1CCCCC1 | inactive
CC(C)Oc1ccccc1O | inactive
BrC1CCC(Br)C(Br)CCC(Br)C(Br)CCC1Br (stereo not drawn) | active
COc1cc(C=O)ccc1OC(=O)C(C)C | inactive
O=C(O)C[C@H](O)C[C@H](O)/C=C/c1c(C2CC2)nc2ccccc2c1-c1ccc(F)cc1 | inactive
CCC(=O)OCc1ccccc1 | inactive
CCCCCCCCC=O | inactive
C=C[Si](OCC)(OCC)OCC | inactive
CN(CCOc1ccc(CC2SC(=O)NC2=O)cc1)c1ccccn1 (stereo not drawn) | inactive
NCCNCCN | inactive
C[C@H]1C[C@@H]2[C@H]([C@@H](O)C[C@@]3(C)[C@H]2CC[C@]3(O)C(=O)CO)[C@@]2(C)C=CC(=O)C=C12 | inactive
Cc1ccc(O)c(C(C)(C)C)c1 | active
CCCCC/C=C/C=C/C=O | active
O=C(O)c1cn(C2CC2)c2cc(N3CCNCC3)c(F)cc2c1=O | inactive
O=C=NC1CCC(CC2CCC(N=C=O)CC2)CC1 (stereo not drawn) | inactive
CC1CCC(C(C)CS)CC1S (stereo not drawn) | active
CC(=O)Nc1ccccc1O | inactive
CC(=O)O[C@]1(C(C)=O)CC[C@H]2[C@@H]3C[C@H](C)C4=CC(=O)CC[C@]4(C)[C@H]3CC[C@@]21C | inactive
CC(=O)[C@H]1CC[C@H]2[C@@H]3CC=C4C[C@@H](O)CC[C@]4(C)[C@H]3CC[C@]12C | inactive
O=P(c1ccccc1)(c1ccccc1)c1ccccc1 | inactive
CCCCC(CC)COC(=O)/C=C\C(=O)OCC(CC)CCCC (stereo not drawn) | inactive
C#C[C@]1(O)CC[C@H]2[C@@H]3CCC4=Cc5oncc5C[C@]4(C)[C@H]3CC[C@@]21C | inactive
O=[N+]([O-])c1cc(C(F)(F)F)ccc1Cl | inactive
c1ccc2c(c1)c1cccc3ccc4cccc2c4c31 | inactive
CC1COc2ccccc2N1C(=O)C(Cl)Cl (stereo not drawn) | active
O=C(O)c1cn(-c2ccc(F)cc2)c2cc(N3CCNCC3)c(F)cc2c1=O | inactive
